These data points were gathered from patent US20160185837A1.

# Target system: T1, rat GLP-1 receptor (rGLP-1r) (Rattus norvegicus, UniProt P32301)
# T1 construct: expressed in transfected cells; host or cells: HEK293s or CHO cells
# T1 sequence (P32301 22-463): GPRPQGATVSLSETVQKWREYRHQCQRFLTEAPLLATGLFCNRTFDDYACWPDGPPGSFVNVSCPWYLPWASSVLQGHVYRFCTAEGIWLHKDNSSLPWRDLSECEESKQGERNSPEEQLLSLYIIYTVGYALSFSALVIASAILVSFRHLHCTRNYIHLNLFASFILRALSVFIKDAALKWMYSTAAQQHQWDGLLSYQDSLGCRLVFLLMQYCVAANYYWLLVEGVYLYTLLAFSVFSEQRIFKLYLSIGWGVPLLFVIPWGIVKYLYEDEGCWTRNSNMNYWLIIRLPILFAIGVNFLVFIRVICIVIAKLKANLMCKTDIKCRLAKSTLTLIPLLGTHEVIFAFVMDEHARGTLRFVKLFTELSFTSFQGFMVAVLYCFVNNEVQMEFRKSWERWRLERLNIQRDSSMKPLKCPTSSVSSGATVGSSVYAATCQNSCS
# Measurement notes: BSA-cAMP assay, cells expressing rat GLP-1 receptor
# Type: cell-based
# Test settings: Batch 1; BSA-cAMP assay; read-out: rGLP1r cAMP activity EC50
pEC50: −log10 of the molar value.
Observable: pEC50

Look over these answered cases.
| Molecule | Observable | Result number |
| --- | --- | --- |
| IP367 (protein) YSEGTFTSDYRILKERQAIDEFIAWLLKGGAAAGGSGSTASSGSGSATGGGGAATHTCPPC | pEC50 | 8.10 |
| IP351 (protein) YSEGTFISDYSIAMDKIHQQDFVNWLLAQKPSSGAPPPSGGGGSGGGGSGGGGSGGGGSACPPC | pEC50 | 6.68 |
| IP306 (protein) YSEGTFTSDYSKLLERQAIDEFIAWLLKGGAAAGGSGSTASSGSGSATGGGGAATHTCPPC | pEC50 | 10.82 |
| IP376 (protein) YSEGTFTSLFSKLLERQAIDEFIAWLLKGGAAAGGSGSTASSGSGSATGGGGAATHTCPPC | pEC50 | 8.89 |
| IP364 (protein) YSEGTFTSDFSKLLERQAIDEFIAWLLKGGAAAGGSGSTASSGSGSATGGGGAATHTCPPC | pEC50 | 10.24 |
| IP310 (protein) YSEGTFTSDVSSYMERQAIDEFIAWLLKGKAAAGGSGSTASSGSGSATGGGGAATHTCPPC | pEC50 | 10.42 |
| IP375 (protein) YSEGTHTSLFSKLLERQAIDEFIAWLLKGGAAAGGSGSTASSGSGSATGGGGAATHTCPPC | pEC50 | 8.41 |

a. IP373 (protein) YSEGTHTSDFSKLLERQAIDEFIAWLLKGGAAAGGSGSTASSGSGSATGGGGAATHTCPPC
b. IP312 (protein) YSEGTFISDVSSYMERQAIDEFIAWLLKGGAAAGGSGSTASSGSGSATGGGGAATHTCPPC
c. IP301 (protein) YSEGTFTSDVSSYLEREAIDEFIAWLLKGGAAAGGSGSTASSGSGSATGGGGAATHTCPPC
(Q) Exam item: list the entries in increasing order of pEC50. Could you list the labels in the order requested?
(A) b, a, c
(b: 8.27, a: 9.05, c: 10.24)
